target: MtInhA (Mycobacterium tuberculosis); construct: made in house; assay: MtInhA enzyme inhibition by steady-state kinetics (NADH oxidation at 340 nm); assay type: biochemical; conditions: Lineweaver-Burk plot, fixed NADH 60 μM
Sequence (P9WGR1 whole entry, looked up): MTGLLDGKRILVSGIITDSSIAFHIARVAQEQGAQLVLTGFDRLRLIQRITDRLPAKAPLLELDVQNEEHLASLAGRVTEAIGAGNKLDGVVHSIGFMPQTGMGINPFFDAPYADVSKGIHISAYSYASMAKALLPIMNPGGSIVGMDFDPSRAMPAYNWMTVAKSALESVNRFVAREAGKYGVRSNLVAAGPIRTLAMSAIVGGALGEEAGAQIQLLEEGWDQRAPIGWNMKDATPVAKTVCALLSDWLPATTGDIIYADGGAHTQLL
READOUT_KIND: mode of inhibition with respect to DD-CoA

Here are 5 compounds together with their reported answers.
Cc1ccccc1OCc1nc(-c2ccc(NC(=O)c3cccs3)cc2)no1 [Labio_16]    non-competitive
CCOC(=O)c1ccc2nc(C)cc(Nc3ccc(N4CCCCC4)cc3)c2c1 [Labio_17]    competitive
CCN(CC)Cc1cc(-c2ccnc3cc(Cl)ccc23)ccc1O [Labio_15]    competitive
COc1ccc(CCC(=O)Nc2nn3cc(-c4ccccc4)nc3s2)cc1 [Labio_6]    non-competitive
Cc1nc([C@H](C)NC(=O)c2ccc3oc(Cc4ccccc4F)nc3c2)cs1 [Labio_2]    non-competitive

For the next question, use this compound.
Would you mind telling me what mode of inhibition with respect to DD-CoA value was observed for COc1ccc(-c2n[nH]cc2/C=N\NC(=O)c2cc(C)nc3c(C)cccc23)cc1 [Labio_11] ?
competitive
